Tested on: RXF 393
protocol_summary: NCI tumour cell line growth inhibition, 48 h
The source made the active and inactive calls. No stated cut-off is given here; in the data, active = GI50 up to about 1.1 µM and inactive = higher.
Thanks in advance; please answer with one of these: 1 (yes) (active), 0 (no) (inactive)

A selection of reference data follows.
{"compound": "CC(C)(C)OC(=O)NCCC1CN(C(=O)c2ccccc2)c2ccccc21 (centres undefined)", "label_value": "0 (no)"}
{"compound": "Cc1cccc(C2SCc3nc4ccccc4n32)c1 (centres undefined)", "label_value": "0 (no)"}
{"compound": "COC1C(O)CC(OC2CC(Oc3cc4cc5c(c(O)c4c(O)c3C)C(=O)[C@@H](OC3CC(OC4CC(OC6CC(C)(O)C(OC(C)=O)C(C)O6)C(O)C(C)O4)C(O)C(C)O3)[C@H]([C@H](OC)C(=O)[C@@H](O)[C@@H](C)O)C5)OC(C)C2OC(C)=O)OC1C (some centres undefined)", "label_value": "1 (yes)"}
{"compound": "CC1(C)OC(=C(C#N)C#N)C(C#N)=C1/C=C/c1ccncc1", "label_value": "0 (no)"}
{"compound": "Cc1c2ccccc2c(C)n2c1nc1cc(Cl)c(Cl)cc12", "label_value": "0 (no)"}
{"compound": "C/C(CC(O)(C(F)(F)Cl)C(F)(F)Cl)=N\\Nc1ccccc1", "label_value": "0 (no)"}
{"compound": "O=C(O)c1ccc2c(c1)CC1(C2)Cc2cc3c(cc2C1=O)CCC3 (centres undefined)", "label_value": "0 (no)"}
{"compound": "O=C(O)C(Br)C(Br)c1ccccc1[N+](=O)[O-] (centres undefined)", "label_value": "0 (no)"}

Now let's try a different one.
Given `CN(C)C(=O)Oc1ccc(-c2cn3cc(NC(=O)c4ccccc4)ccc3n2)cc1` , state the outcome it received in this test. 0 (no)

---

Test system: SNB-19
protocol_summary: NCI tumour cell line growth inhibition, 48 h
Active and inactive are the calls of the source. No stated cut-off is given here; in the data, active = GI50 up to about 1.1 µM and inactive = higher.
Thanks in advance; please answer with one of these: active, inactive

A selection of reference data follows.
{"compound": "CC(C)C1COC(C(C)(C)C2=N[C@@H](C(C)C)CO2)=N1 (some centres undefined)", "label_value": "inactive"}
{"compound": "Cc1ccc(Cc2cc(N3CCN(c4cccc(Cl)c4)CC3)nnc2C)cc1", "label_value": "inactive"}
{"compound": "COC(=O)C1=C(C)NC(C)=C(C(=O)OC)C1c1ccc(N=O)cc1", "label_value": "inactive"}

Given CCCCCCCCCCCCCC(=O)OCC1OC(=O)C(O)C1O (centres undefined) , state the outcome it received in this test. inactive

Given `CN(C)C(=O)Nc1c([N+](=O)[O-])cc(C(F)(F)F)cc1[N+](=O)[O-]` , state the outcome it received in this test. inactive

Given `COC(=O)CC(=O)NCC1=CCC(=O)CC1` , state the outcome it received in this test. inactive

Given CC(=O)OC1C(O)C(C)OC(OC2C(OC(=O)C3CCC4C(C3)OC3(CC(OC(=O)/C=C/c5ccccc5)C(C)CO3)C43CO3)OC(C)C(O)C2OC(C)=O)C1O (centres undefined) , state the outcome it received in this test. active

Given `COC(=O)C1=Nc2c(C)nn(-c3ccccc3)c2N=C(c2ccc(C)cc2)C1` , state the outcome it received in this test. inactive

Given Nc1ccn(C2OC(COP(=O)(O)OCC3OC(n4cc(F)c(=O)[nH]c4=O)CC3O)C(O)C2O)c(=O)n1 (centres undefined) , state the outcome it received in this test. active
